Tested on: CCRF-CEM
experimentDescription: Antiviral activity was measured on HIV-1 in wild-type CEM/O cells
Assay type: functional, cell-based, Homo sapiens
protocolConditions: ccrf-cem
measuredQuantity: pEC50
Notebook: values listed as pEC50 are -log10 of the concentration (mol/L).

pEC50 for "Cc1cn([C@H]2C=C[C@@H](CO)O2)c(=O)[nH]c1=O" is 6.74

====

Below: a set of entries, each annotated with reported EC50.
Test system: CCRF-CEM
experimentDescription: Antiviral activity was measured on HIV-2 in mutant thymidine kinase-deficient CEM/TK- cells
Type: functional, cell-based
protocolConditions: Homo sapiens
Please reply with the bare figure in µM and do not write the unit itself.

Cc1cn([C@H]2C=C[C@@H](COP3(=O)OCc4cc([N+](=O)[O-])ccc4O3)O2)c(=O)[nH]c1=O (some centres not stated): 40

Could you now look at the following compound, please?
EC50 for Cc1cn(C2C=CC(COP3(=O)OCc4cc(Cl)ccc4O3)O2)c(=O)[nH]c1=O (configuration not stated) is 2.67
